target-or-test-system: Acyl-CoA:cholesterol acyltransferase (Oryctolagus cuniculus)
Sequence (Q95214 whole entry): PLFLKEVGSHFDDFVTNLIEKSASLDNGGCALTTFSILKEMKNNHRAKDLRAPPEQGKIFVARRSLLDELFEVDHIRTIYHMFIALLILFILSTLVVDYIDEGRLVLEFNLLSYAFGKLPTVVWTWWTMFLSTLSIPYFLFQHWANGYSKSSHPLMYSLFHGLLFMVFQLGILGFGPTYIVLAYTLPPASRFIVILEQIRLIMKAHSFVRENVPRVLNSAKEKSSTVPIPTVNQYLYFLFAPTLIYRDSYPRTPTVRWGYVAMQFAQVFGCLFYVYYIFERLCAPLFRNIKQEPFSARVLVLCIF
assay-summary: Concentration required for the in vitro inhibition of Acyl coenzyme A:cholesterol acyltransferase (ACAT) in intestinal microsomes isolated from cholesterol-fed rabbits
measurement-name: IC50 (nM)
Report only the number, with the unit nM understood.

Query block: # query: IC50 of entry CCCCCCCCCCCCn1nnc(C(NC(=O)c2c(C)cccc2C)c2ccccc2)n1 (stereo unspecified)
Result block: 110

====

target-or-test-system: Sterol O-acyltransferase 1 (Rattus norvegicus, UniProt O70536)
Sequence (O70536 whole entry): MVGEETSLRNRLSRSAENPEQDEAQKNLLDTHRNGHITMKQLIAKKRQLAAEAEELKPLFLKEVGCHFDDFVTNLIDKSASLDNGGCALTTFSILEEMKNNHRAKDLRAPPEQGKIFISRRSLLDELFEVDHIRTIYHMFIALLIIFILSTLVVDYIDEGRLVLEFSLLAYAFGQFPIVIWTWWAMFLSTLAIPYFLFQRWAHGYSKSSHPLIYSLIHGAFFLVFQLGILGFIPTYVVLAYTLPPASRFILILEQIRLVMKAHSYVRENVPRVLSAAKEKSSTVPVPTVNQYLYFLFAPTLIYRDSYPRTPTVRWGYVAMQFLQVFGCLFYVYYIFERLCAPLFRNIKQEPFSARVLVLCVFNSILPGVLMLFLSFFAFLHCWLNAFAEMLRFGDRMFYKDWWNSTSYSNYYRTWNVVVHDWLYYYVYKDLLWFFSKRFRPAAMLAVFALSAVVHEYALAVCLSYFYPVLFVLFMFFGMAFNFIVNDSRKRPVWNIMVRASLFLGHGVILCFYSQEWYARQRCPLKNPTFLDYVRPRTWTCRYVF
assay-summary: Concentration required for the in vitro inhibition of Acyl coenzyme A:cholesterol acyltransferase (ACAT) in liver microsomes isolated from cholesterol-fed rats
// NB: equality with 500 nM counts as false; only IC50 strictly below is true

Examples with answers:
compound | category-label
CCCCCCCCCCCCn1nnc(C(NC(=O)c2ccc(OC)cc2)c2ccccc2)n1 (stereo not given) | false
CCCCCCCCCCCCn1nnnc1C(NC(=O)c1cccc([N+](=O)[O-])c1)c1ccccc1 (stereo not given) | true
CCCCCCCCCCCCn1nnnc1C(NC(=O)c1ccc(F)cc1F)c1ccccc1 (stereo not given) | true

Query block: Please indicate whether the reported IC50 of CCCCCCCCCCCCn1nnc(C(NC(=O)c2c(OC)cc(OC)cc2OC)c2ccccc2)n1 (stereo not given) is strictly below 500 nM.
Result block: false

Query block: Repeat with CCCCCCCCCCCCn1nnc(C(NC(=O)c2c(Cl)cccc2Cl)c2ccccc2)n1 (stereo not given)
Result block: true

Query block: // next record CCCCCCCCCCCCn1nnc(C(NC(=O)c2c(C)cccc2C)c2ccccc2)n1 (stereo not given)
Result block: true

Query block: CCCCCCCCCCCCn1nnnc1C(NC(=O)c1c(C)cccc1C)c1ccccc1 (stereo not given) ?
Result block: true

Query block: Also check CCCCCCCCCCCCn1nnc(C(NC(=O)c2ccc(Cl)cc2)c2ccccc2)n1 (stereo not given)
Result block: true

Query block: Another compound: CCCCCCCCCCCCn1nnc(C(NC(=O)c2ccccc2[N+](=O)[O-])c2ccccc2)n1 (stereo not given)
Result block: true

====

Reported IC50 values for the following compounds.
target-or-test-system: UniProt O70536
assay-summary: Concentration required for the in vitro inhibition of Acyl coenzyme A:cholesterol acyltransferase (ACAT) in liver microsomes isolated from cholesterol-fed rats
Give just the number in nM; leave the unit off.

compound | target-or-test-system | unit-label | IC50
CCCCCCCCCCCCn1nnnc1C(NC(=O)c1c(Cl)cccc1Cl)c1ccccc1 (stereo not given) | UniProt O70536 | nM | 380
CCCCCCCCCCCCn1nnc(C(NC(=O)c2cccc([N+](=O)[O-])c2)c2ccccc2)n1 (stereo not given) | UniProt O70536 | nM | 80
CCCCCCCCCCCCn1nnc(C(NC(=O)c2ccc([N+](=O)[O-])cc2)c2ccccc2)n1 (stereo not given) | UniProt O70536 | nM | 540

Query block: So what does the record say about IC50 for CCCCCCCCCCCCn1nnc(C(NC(=O)c2ccnc(SC)c2)c2ccccc2)n1 (stereo not given) ?
Result block: 80

Query block: Param item: CCCCCCCCCCCCn1nnnc1C(NC(=O)c1ccnc(SC)c1)c1ccccc1 (stereo not given)
Result block: 140

====

Organism: Rattus norvegicus
assay-summary: Percent change in total cholesterol in cholic acid (0.5%)-cholesterol (1.5%)-peanut oil (5.5%)-fed rats
Format: functional
measurement-name: Change TC (%)
Use % as the unit, but write only the number.

compound | unit-label | experimental-result
CCCCCCCCCCCCn1nnnc1C(NC(=O)c1ccnc(SC)c1)c1ccccc1 (configuration not stated) | % | -37
CCCCCCCCCCCCn1nnc(C(NC(=O)c2c(C(C)C)cccc2C(C)C)c2ccccc2)n1 (configuration not stated) | % | 2
CCCCCCCCCCCCn1nnc(C(NC(=O)c2ccnc(SC)c2)c2ccccc2)n1 (configuration not stated) | % | -68
CCCCCCCCCCCCn1nnnc1C(NC(=O)c1c(C)cccc1C)c1ccccc1 (configuration not stated) | % | -57
CCCCCCCn1nnc(C(NC(=O)c2c(C)cccc2C)c2ccccc2)n1 (configuration not stated) | % | -13
CCCCCCCCCCCCn1nnnc1C(NC(=O)c1ccccc1C(F)(F)F)c1ccccc1 (configuration not stated) | % | -12
CCCCCCCCCCCCn1nnc(C(NC(=O)c2c(C)cccc2C)c2ccccc2)n1 (configuration not stated) | % | -40
CCCCCCCCCCCCn1nnc(C(NC(=O)c2ccccc2)c2ccccc2)n1 (configuration not stated) | % | -5

Query block: For the compound shown here, CCCCCCCCCCCCn1nnc(C(NC(=O)c2ccccc2C(F)(F)F)c2ccccc2)n1 (configuration not stated) , give the reported Change TC.
Result block: -15

Query block: Cool, now CCCCCCCCCCCCn1nnc(C(NC(=O)c2ccc([N+](=O)[O-])cc2)c2ccccc2)n1 (configuration not stated)
Result block: 8

Query block: Quick one: CCCCCCCCCCCCn1nnc(C(NC(=O)c2ccc(F)cc2F)c2ccccc2)n1 (configuration not stated)
Result block: -10

Query block: CCCCCCCCCCCCn1nnnc1C(NC(=O)c1ccc(F)cc1F)c1ccccc1 (configuration not stated) , same question.
Result block: -23
